Ref: patent US20240279318A1

target: T1, AFP158/HLA-A*02:01 complex (human); assay: SPR, crude scFv captured, pMHC analyte;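 note: complex injected at several concentrations over the chip, association phase then running buffer for dissociation, KD derived from on- and off-rates computed from both curves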
T1 construct: flowed as analyte in SPR

{"columns": ["BINDER", "Kd, nM"],
 "data": [
  ["AS170036 VL1VH1-56N98Q108A (scFv, also called 55-AS170036 VL1VH1-56N98Q108A) scFv: QSALTQPRSVSGSPGQSVTISCAGTSSDVGSENYVSWYQQHPGKAPKLMIYQVNKRASGVPDRFSGSKSGNTASLTISGLQAEDEADYYCASYRSSDQNIVFGGGTKLTVLGGGGSGGGGSGGGGSEVQLVESGGGLVQPGGSLRLSCAASGFTFSSYAMSWVRQAPGKGLEWVSTINSGTNSPYYADSVKGRFTISRDNSKNTLYLQMNSLRAEDTAVYYCAKNFFDGSWFLAPPAMDYWGQGTLVTVSSHHHHHH", 4.2],
  ["AS170036 VL1VH1-56Y98F108D (scFv, also called 41-AS170036 VL1VH1-56Y98F108D) scFv: QSALTQPRSVSGSPGQSVTISCAGTSSDVGSENYVSWYQQHPGKAPKLMIYQVNKRASGVPDRFSGSKSGNTASLTISGLQAEDEADYYCASYRSSDFNIVFGGGTKLTVLGGGGSGGGGSGGGGSEVQLVESGGGLVQPGGSLRLSCAASGFTFSSYAMSWVRQAPGKGLEWVSTINSGTYSPYYADSVKGRFTISRDNSKNTLYLQMNSLRAEDTAVYYCAKNFFDGSWFLDPPAMDYWGQGTLVTVSSHHHHHH", 2],
  ["AS170036 VL1VH1-57M98Q108D (scFv, also called 83-AS170036 VL1VH1-57M98Q108D) scFv: QSALTQPRSVSGSPGQSVTISCAGTSSDVGSENYVSWYQQHPGKAPKLMIYQVNKRASGVPDRFSGSKSGNTASLTISGLQAEDEADYYCASYRSSDQNIVFGGGTKLTVLGGGGSGGGGSGGGGSEVQLVESGGGLVQPGGSLRLSCAASGFTFSSYAMSWVRQAPGKGLEWVSTINSGTGMPYYADSVKGRFTISRDNSKNTLYLQMNSLRAEDTAVYYCAKNFFDGSWFLDPPAMDYWGQGTLVTVSSHHHHHH", 7.6]
]}
